# %Inh per record follows
# Test system: ALK
# PROTOCOL_CONDITIONS: concentration: 1 μM, replicates: in singlicate; n = 1;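 further: KINOMEscan kinase panel screen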
Quick note: give the figure in %, leave out the unit.

Input: Using ALK as the test system, report measured %Inh of "Cc1c(Cn2ccn3c(=O)cc(N4CCOCC4)nc23)cccc1C(F)(F)F" .
Output: 5

Others:
Input: Using ALK as the test system, report measured %Inh of "CC(C)(C)c1ccc(C(=O)Nc2cn3cc(-c4cccnc4)ccc3n2)cc1" .
Output: 0

Input: Using ALK as the test system, report measured %Inh of COc1ccc(CNC(=O)NC2CCN(c3ccnc(Nc4cc(OC)c(OC)c(OC)c4)n3)C2)cc1 (stereo not drawn) .
Output: 27

Input: Using ALK as the test system, report measured %Inh of "Fc1cc(Cl)ccc1Nc1ccnc2cc(I)ccc12" .
Output: 29

Input: Using ALK as the test system, report measured %Inh of "Nc1ncnc2[nH]c(-c3ccccc3)nc12" .
Output: 33

Input: Using ALK as the test system, report measured %Inh of "O=C(Nc1n[nH]c2nc(-c3nccs3)c(Br)cc12)C1CC1" .
Output: 26

---

# %Inh per record follows
# System: CDKL3
# PROTOCOL_CONDITIONS: concentration: 1 μM, replicates: in singlicate; n = 1
Quick note: give the figure in %, leave out the unit.

Recorded %Inh, per entry:
Input: Using CDKL3 as the test system, report measured %Inh of Cc1cccc(-c2nc(Nc3cccc(C(N)=O)c3)c3ccccc3n2)n1 [GW876019] .
Output: 0

Input: Using CDKL3 as the test system, report measured %Inh of COc1cc2ncn(-c3cc(OCC4CCCO4)c(C(N)=O)s3)c2cc1OC (centres unmarked) [GSK204607] .
Output: 0

Input: Using CDKL3 as the test system, report measured %Inh of "Cn1ccc2ncnc(Oc3cccc(C(=O)Nc4ccccc4)c3)c21" .
Output: 0

Input: Using CDKL3 as the test system, report measured %Inh of CC1=C(C(=O)Nc2cc3cn[nH]c3cc2F)C(c2ccc(C(F)(F)F)cc2)CC(=O)N1 (centres unmarked) [GSK429286] .
Output: 0

Input: Using CDKL3 as the test system, report measured %Inh of CN1C(=O)C(Nc2ccc(Cl)c(C(=O)O)c2)=C(c2ccc(Cl)cc2)C1=O [SB-404290] .
Output: 0

Input: Using CDKL3 as the test system, report measured %Inh of "COC(=O)c1c(-c2ccccc2)c2cc(OC)ccc2c(=O)n1Cc1ccccc1" .
Output: 12

Others:
Input: Using CDKL3 as the test system, report measured %Inh of "O=C(O)COc1ncnc2cc(-c3ccc4[nH]ncc4c3)sc12" .
Output: 13

Input: Using CDKL3 as the test system, report measured %Inh of Clc1cc(Cl)cc(Nc2ccnc(Nc3cc(Cl)cc(Cl)c3)n2)c1 [GSK175726] .
Output: 0

Input: Using CDKL3 as the test system, report measured %Inh of Cc1cc(N2Cc3ccccc3C2)nc(Nc2ccc(S(=O)(=O)N3CCOCC3)cc2)n1.Cl [GSK1669917] .
Output: 0

Input: Using CDKL3 as the test system, report measured %Inh of "O=C(Nc1ccccc1)Nc1cccc(Oc2ccc3nccn3n2)c1" .
Output: 0

Input: Using CDKL3 as the test system, report measured %Inh of "Fc1cccc(COc2nnc(-c3ccc4c(c3)CCO4)o2)c1" .
Output: 9

Input: Using CDKL3 as the test system, report measured %Inh of Cc1ccccc1-n1cnc2c(N)ncnc21 [SKF-97510] .
Output: 39

Input: Using CDKL3 as the test system, report measured %Inh of Cn1cncc1-c1ccc2ncnc(Nc3ccc(OCc4ccccc4)cc3)c2c1 [GW320571] .
Output: 0

Input: Using CDKL3 as the test system, report measured %Inh of Fc1cc(Cl)ccc1Nc1ccnc2cc(-c3ccc(CN4CCCCC4)o3)ccc12 [GW560116] .
Output: 0

Input: Using CDKL3 as the test system, report measured %Inh of O=C1NC(=O)C(N2CCc3ccccc32)=C1c1ccccc1Cl [SB-373598] .
Output: 4

Input: Using CDKL3 as the test system, report measured %Inh of Cl.Oc1ccc(-c2nc(-c3ccccc3)[nH]c2-c2ccncc2)cc1 [SB-428218] .
Output: 0

Input: Using CDKL3 as the test system, report measured %Inh of Cc1cccc(-c2cc(Nc3ccncc3)c3ccccc3n2)n1 [GSK223675] .
Output: 0

Input: Using CDKL3 as the test system, report measured %Inh of Nc1nc(-c2nccs2)c(-c2ccnc3ccccc23)s1 [GW693542] .
Output: 0

Input: Using CDKL3 as the test system, report measured %Inh of "NC(=O)c1nnc2ccccc2c1N" .
Output: 17

Input: Using CDKL3 as the test system, report measured %Inh of COc1ccccc1-c1ccc2c(NC(=O)C3CC3)n[nH]c2n1 [SB-711239] .
Output: 20

Input: Using CDKL3 as the test system, report measured %Inh of O=C(Nc1ccc2c(c1)OCO2)NC1CCN(c2ccnc(Nc3ccc(F)cc3)n2)C1 (centres unmarked) [GSK1379724] .
Output: 0

Input: Using CDKL3 as the test system, report measured %Inh of CCn1c(-c2cccnc2O)nc2cnccc21 [SB-736715] .
Output: 10

Input: Using CDKL3 as the test system, report measured %Inh of Nc1ncnc2[nH]c(-c3ccccc3)nc12 [AH5015] .
Output: 0

Input: Using CDKL3 as the test system, report measured %Inh of COc1ccc(CNC(=O)NC2CCN(c3ccnc(Nc4cc(OC)c(OC)c(OC)c4)n3)C2)cc1 (centres unmarked) [GSK1379748] .
Output: 0

Input: Using CDKL3 as the test system, report measured %Inh of COc1cc(Nc2nccc(N3CCC(NC(=O)Nc4cc(C)ccc4C)C3)n2)cc(OC)c1OC (centres unmarked) [GSK1379762] .
Output: 0

Hey, just so you know, these numbers are from paper PMC5540273.
